Where a name gives a salt, the structure may show the parent alone.
Each entry below carries its reported melting point.

| molecule | melting point |
| --- | --- |
| O=[N+]([O-])c1ccc(N2CCN(CCC(O)c3csc4ccccc34)CC2)c(C(F)(F)F)c1 (stereo not drawn) | 154 to 155 °C |
| OC(CCN1CCN(c2ccc(Cl)cc2)CC1)c1ccc(-c2ccccc2)cc1 (stereo not drawn) | 169 to 170 °C |
| O=[N+]([O-])c1ccc(N[C@@H]2CCN(CCC(O)c3csc4ccccc34)C2)c(C(F)(F)F)c1 (stereo partly drawn) | 48 to 50 °C |
| COc1ccccc1N1CCN(CCC(O)c2c[nH]c3ccccc23)CC1 (stereo not drawn) | 188 to 189 °C |
| O=C(CCN1CCN(c2ccc([N+](=O)[O-])cc2C(F)(F)F)CC1)c1csc2ccccc12 | 140 to 141 °C |

Please fill in: melting point reported for O=C(CCN1CCCN(c2ccc([N+](=O)[O-])cc2)CC1)c1csc2ccccc12 (as salt: hydrochloride) = 121 to 123 °C

Please fill in: melting point reported for O=[N+]([O-])c1ccc([C@@]2(NCCC(O)c3ccc4ccccc4c3)CCNC2)c(C(F)(F)F)c1 (stereo partly drawn) (as salt: hydrochloride) = 181 to 183 °C

Please fill in: melting point reported for O=C(CCNC1CCN(c2ccc([N+](=O)[O-])cc2)CC1)c1csc2ccccc12 = 144 to 145 °C

Please fill in: melting point reported for COc1cccc(N2CCN(CCC(O)c3csc4ccc(F)cc34)CC2)c1 (stereo not drawn) (as salt: hydrochloride) = 135 to 137 °C

Please fill in: melting point reported for COc1ccccc1N1CCN(CCC(O)c2ccc(-c3ccccc3)cc2)CC1 (stereo not drawn) = 109 to 110 °C

Please fill in: melting point reported for COc1ccccc1N1CCN(CCC(O)c2ccc3cc(C)ccc3c2)CC1 (stereo not drawn) (as salt: hydrochloride) = 116 to 117 °C

Please fill in: melting point reported for O=[N+]([O-])c1ccc(N2CCC(NCCC(O)c3csc4ccccc34)CC2)cc1 (stereo not drawn) = 153 to 155 °C

Please fill in: melting point reported for O=[N+]([O-])c1ccc(N2CC[C@H](NCCC(O)c3csc4ccccc34)C2)c(C(F)(F)F)c1 (stereo partly drawn) = 109 to 110 °C

Please fill in: melting point reported for O=C(CCN1CC[C@@H](Nc2ccc([N+](=O)[O-])cc2C(F)(F)F)C1)c1csc2ccccc12 = 98 to 100 °C

Please fill in: melting point reported for OC(CCN1CCN(c2cnc3ccccc3n2)CC1)c1csc2ccccc12 (stereo not drawn) = 155 to 156 °C

Please fill in: melting point reported for O=[N+]([O-])c1ccc(N2CCN(CCC(O)c3csc4ccc(F)cc34)CC2)cc1 (stereo not drawn) = 189 to 190 °C

Please fill in: melting point reported for O=C(CCN1CCN(c2cnc3ccccc3n2)CC1)c1csc2ccccc12 = 145 to 146 °C

Please fill in: melting point reported for O=[N+]([O-])c1ccc(N2CCCN(CCC(O)c3csc4ccccc34)CC2)cc1 (stereo not drawn) = 47 to 48 °C
